Recorded values, source ChEMBL document CHEMBL1139330.

We begin with a simple list: items and their reported pKi.
# tested_on: D(1A) dopamine receptor (Rattus norvegicus)
# Sequence (P18901 whole entry): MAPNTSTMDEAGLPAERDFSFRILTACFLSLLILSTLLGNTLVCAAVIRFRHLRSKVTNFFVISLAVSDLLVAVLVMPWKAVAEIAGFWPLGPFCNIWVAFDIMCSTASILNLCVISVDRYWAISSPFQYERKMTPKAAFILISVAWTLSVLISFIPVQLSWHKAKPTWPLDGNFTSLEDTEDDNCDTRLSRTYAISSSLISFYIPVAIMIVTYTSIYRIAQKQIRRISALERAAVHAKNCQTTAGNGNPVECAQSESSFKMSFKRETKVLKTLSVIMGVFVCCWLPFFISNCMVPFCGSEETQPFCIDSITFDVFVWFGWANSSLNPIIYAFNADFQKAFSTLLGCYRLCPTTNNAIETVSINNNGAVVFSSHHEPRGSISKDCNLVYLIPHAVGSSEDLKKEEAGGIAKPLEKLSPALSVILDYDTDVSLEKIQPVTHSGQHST
# protocol_text: Displacement of [3H]SCH23390 from dopamine D1 receptor in rat forebrain
pKi: −log10 of the molar value.

Illustrative cases are given below, each with its answer.
given_smiles: CCCCC(=O)Oc1cccc2c1-c1cc(OC)cc3c1[C@@H](C2)N(C)CC3
pKi: 5.83
--
given_smiles: CCCN1CCc2cccc3c2[C@H]1Cc1cccc(OC(C)=O)c1-3
pKi: < 5.00
--
given_smiles: COc1cc2c3c(c1)-c1c(cccc1OC(C)=O)C[C@H]3N(C)CC2
pKi: 6.28
--
given_smiles: CCCCC(=O)Oc1cccc2c1-c1cccc3c1[C@@H](C2)N(CCC)CC3
pKi: < 4.70
--
given_smiles: CCCN1CCc2cc(OC)cc3c2[C@H]1Cc1cccc(OC(C)=O)c1-3
pKi: < 5.00

API: the following record is the query input.
Would you kindly share the measured pKi for `CCCCC(=O)Oc1cccc2c1-c1cc(OC)cc3c1[C@@H](C2)N(CCC)CC3` ?
< 5.00
